system: Pasteurella multocida; test: minimum inhibitory concentration (MIC); details: isolate (source animal id): 178
The following compounds are listed with their measured minimum inhibitory concentration values.

Here's what some known entries look like.
Enquiry: In one line, give reported minimum inhibitory concentration of the entry CS(=O)(=O)c1ccc([C@@H](O)[C@@H](CF)NC(=O)C(Cl)Cl)cc1 [Florfenicol] .
Return: 0.5 µg/mL

Enquiry: In one line, give reported minimum inhibitory concentration of the entry NC[C@@H]1O[C@H](O[C@H]2[C@@H](O)[C@H](O[C@@H]3[C@@H](O)[C@H](N)C[C@H](N)[C@H]3O[C@H]3O[C@H](CN)[C@@H](O)[C@H](O)[C@H]3N)O[C@@H]2CO)[C@H](N)[C@@H](O)[C@@H]1O [Neomycin] .
Return: > 32 µg/mL

Further cases:
Enquiry: In one line, give reported minimum inhibitory concentration of the entry CO/N=C(\C(=O)N[C@@H]1C(=O)N2C(C(=O)O)=C(CSC(=O)c3ccco3)CS[C@H]12)c1csc(N)n1 [Ceftiofur] .
Return: ≤ 0.25 µg/mL

Enquiry: In one line, give reported minimum inhibitory concentration of the entry CC[C@H]1OC(=O)C[C@@H](O)[C@H](C)[C@@H](O[C@@H]2O[C@H](C)[C@@H](O)[C@H](N(C)C)[C@H]2O)[C@@H](CCN2CCCCC2)C[C@@H](C)C(=O)/C=C/C(C)=C/[C@@H]1CN1CCCCC1 [Tildipirosin] .
Return: ≤ 1 µg/mL

Enquiry: In one line, give reported minimum inhibitory concentration of the entry CC[C@H]1OC(=O)C[C@@H](O)[C@H](C)[C@@H](O[C@@H]2O[C@H](C)[C@@H](O[C@H]3C[C@@](C)(O)[C@@H](O)[C@H](C)O3)[C@H](N(C)C)[C@H]2O)[C@@H](CC=O)C[C@@H](C)C(=O)/C=C/C(C)=C/[C@@H]1CO[C@@H]1O[C@H](C)[C@@H](O)[C@@H](OC)[C@H]1OC [Tylosin] .
Return: > 32 µg/mL

Enquiry: In one line, give reported minimum inhibitory concentration of the entry CC[C@H]1OC(=O)C[C@@H](O)[C@H](C)[C@@H](O[C@@H]2O[C@H](C)[C@@H](O)[C@H](N(C)C)[C@H]2O)[C@@H](CCN2C[C@H](C)C[C@H](C)C2)C[C@@H](C)C(=O)/C=C/C(C)=C/[C@@H]1CO[C@@H]1O[C@H](C)[C@@H](O)[C@@H](OC)[C@H]1OC [Tilmicosin] .
Return: 4 µg/mL
